Where do these numbers come from? They come from PubChem BioAssay (NCATS).

- Tested on: Zika virus NS2B-NS3 protease (linked construct)
- protocol.summary: Primary screen NINDS Rhodamine qHTS for Zika virus inhibitors (AID 1347160); also: nearly all actives have a fitted effect of over 55% in size
- measurement.parameters: purified NS2B-NS3 protease, Rhodamine110 substrate fluorescence; series mostly up to 33.1 µM
Results filed as inconclusive are left out. Active and inactive are the calls of the source. Calls follow the shape of the dose curve; as a rule, active = well fitted inhibition curve with a large enough effect; inconclusive = small, poorly fitted or top-dose-only effect; inactive = no such curve, though single readings can be large or run the other way.
Write down one outcome, taken from 1 for active, -1 for inactive

CC(=O)O[C@@H]1[C@H](OC(C)=O)C[C@@]2(C)C(CC[C@@H](C)[C@]23Cc2c(O)cc4c(c2O3)CN([C@@H](CCC(=O)O)C(=O)O)C4=O)C1(C)C (stereo partly drawn) :: -1
CC1=C(C(=O)OC2OC(COC3OC(CO)C(O)C(O)C3O)C(O)C(O)C2O)C(C)(C)CCC1 (stereo not drawn) :: -1
CCOC(=O)CSc1nc2c(sc3ccccc32)c(=O)n1CCCN1CCCC1 :: -1
CC(=O)N[C@H](Cc1c[nH]c2ccccc12)C(=O)OCc1cc(C(F)(F)F)cc(C(F)(F)F)c1 :: -1
Cc1nnc(-c2ccc3occ(-c4ccc(S(C)=O)cc4)c3c2)o1 (stereo not drawn) :: -1
CCCCS(=O)(=O)NC(Cc1ccc(OCCCCC2CCNCC2)cc1)C(=O)O (stereo not drawn) :: -1

q: Called result for CCNC(=O)OC1CCN(c2nncc3cc(OC)c(OC)cc23)CC1
a: -1

q: For CCCCOc1nc(N)c2c(n1)N(Cc1cccc(CN3CCCC3)c1)CC(=O)N2 , which call appears in the assay record?
a: -1

q: Check the results log: what was the call for C[C@@H]1CC[C@]2(C(=O)O)CC[C@]3(C)C(=CCC4[C@@]5(C)C[C@@H](O)[C@H](O)[C@@](C)(CO)C5CC[C@]43C)C2[C@H]1C (stereo partly drawn) ?
a: -1

q: Please indicate how the test categorized O=C(O)c1ccnc(-c2cc(C(=O)NCCc3ccccc3)ccn2)c1 .
a: -1

q: Would you mind telling me which call this test gave CC(=O)O[C@@H]1CC2C(C)(C)C(=O)C=C[C@]2(C)C2CC[C@]3(C)C(=CC(=O)[C@@H]3c3ccoc3)[C@@]21C (stereo partly drawn) ?
a: -1

====

- Test system: HeLa
- protocol.summary: Primary qHTS to identify gynecologic anti-cancer compounds using libraries of approved drugs and bioactive compounds (AID 1345084); also: % is scaled to controls: 0 for no effect and ±100 for the full control effect; nearly all actives have a fitted effect of over 55% in size
- measurement.parameters: Gynecologic cancer cell panel viability, ATPlite luminescence, 48 h; series mostly up to 57.5 µM
Inconclusive results are not listed. Active and inactive are the calls of the source. The call rests on the fitted dose curve; in most records, active means well fitted cell-killing curve with a large enough effect; inconclusive means small, poorly fitted or top-dose-only effect, or effect the other way; inactive means flat fitted curve, though single readings scatter.
observable: activity change, negative = cytotoxicity

Some solved entries appear below for comparison.
COc1c(-c2ccc(O)cc2)cc(OC)c2c1oc1cc(O)c(OC3OC(CO)C(O)C3O)cc12 (stereo not drawn) :: inactive
COc1cc(/C=C/C(=O)O[C@H]2C[C@@H]3C(C(=O)O)=CO[C@@H](O[C@@H]4O[C@H](CO)[C@@H](O)[C@H](O)[C@H]4O)[C@@H]3[C@H]2C)ccc1O :: inactive
Cc1occc1C(=O)n1ccnc1 :: inactive
COc1cc(C[C@@]2(O)CO[C@@H](c3ccc(O[C@@H]4O[C@H](CO)[C@@H](O)[C@H](O)[C@H]4O)c(OC)c3)[C@H]2CO)ccc1O :: inactive
COc1cc(O)cc(C)c1C(=O)O[C@H]1[C@@H](O)[C@@H](n2ccc(=O)[nH]c2=O)O[C@@H]1CO :: inactive
C[C@@H]1O[C@@H](O[C@H]2[C@H](O[C@H]3[C@H](O[C@H]4CC[C@@]5(C)C(CC[C@]6(C)C5CC=C5[C@@H]7CC(C)(C)C[C@@H](O)[C@]7(C)CC[C@]56C)C4(C)C)O[C@H](C(=O)O)[C@@H](O)[C@@H]3O)O[C@H](C(=O)O)[C@H](O)[C@@H]2O)[C@H](O)[C@H](O)[C@H]1O (stereo partly drawn) :: 5.18% [at 11.6 µM] (inactive)
CCC(C)/C=C(C)/C=C/C1=CC2=C(Cl)C(=O)C(C)(OC(C)=O)C(=O)C2=CN1C(CC(=O)O)C(=O)O (stereo not drawn) :: inactive
CC1(C)CC(NC(=O)C(=O)Nc2ccc(Cl)cc2)CC(C)(C)N1 :: inactive

q: Which activity change, negative = cytotoxicity value is on record for C/C(=C\CCC(C)(C)O)CCO[C@@H]1O[C@H](CO[C@@H]2O[C@@H](C)[C@H](O)[C@@H](O)[C@H]2O)[C@@H](O)[C@H](O)[C@H]1O ?
a: inactive
